The origin of these recorded values is PubChem BioAssay.

- TEST PROTOCOL: CREB reporter modulators without forskolin, primary screen, cell-based, PC12, CRE-LacZ reporter, unstimulated (AID 1145)
- MEASUREMENT CONTEXT: no forskolin, luminescence, 4.5 h, higher = more signal, called active from +8 up or from −8 down
Catalogue of z-score values

COMPOUND	z-score
COc1ccc([Si](C)(C)[C@H]2[C@H](CC(=O)N(CCO)Cc3ccccc3)O[C@@]3(C(=O)N(Cc4cccc(N5CCC5=O)c4)c4ccccc43)[C@@H]2C)cc1	0.469
C=CC[C@@H](OC(=O)Nc1ccc(OC)cc1)c1ccc(O)c2ccccc12	1.01
COc1ccc(C(O)C2C=CC3C(=O)N(C)C(=O)C3N2Nc2ccccc2)cc1OCc1ccccc1 (configuration not stated)	1.21
COC(=O)c1ccc(C(O)C2C=CC3C(=O)N(C)C(=O)C3N2NC(=O)OC(C)(C)C)o1 (configuration not stated)	1
CC(C)C[C@@H]1NC(=O)[C@@H]2C[C@H](C(=O)NCCCCCC[N+](C)(C)C)[C@H](c3ccc(O)cc3)N2C1=O	-0.532
COc1ccc([Si](C)(C)[C@H]2[C@H](CCn3cc([C@H](O)c4ccccc4)nn3)O[C@@]3(C(=O)N(Cc4cccc(N5CCC5=O)c4)c4ccccc43)[C@@H]2C)cc1	2.55
COCCOC(=O)N1C(=O)[C@@]2(c3ccccc31)[C@H](C(=O)NC[C@H](O)c1ccccc1)[C@H]1C(=O)O[C@H](c3ccccc3)[C@H](c3ccccc3)N1[C@@H]2c1ccc(OCCO)cc1	-1.83

---

Catalogue of z-score values
- TEST PROTOCOL: HepG2 cell viability effects, profiling panel, calcein-AM fluorescence, 48 h, basal (AID 1164); also: test concentration not given here
- MEASUREMENT CONTEXT: higher = more signal

MOLECULE	z-score
[N-]=[N+]=NCc1ccccc1C[C@]1(C(=O)O)N=C(c2ccc(OCCCO)cc2)O[C@H]1c1ccccc1	-0.509
CCOC(=O)C[C@H]1[C@H](OC(=O)Cc2ccc3c(c2)OCO3)[C@@H](NC(=O)C2CCCCC2)c2cc(OCCCO)ccc2N1C(=O)Cc1ccc(OC)cc1	1.08
CCOC(=O)C1=C[C@@H](C(C)C)N(S(=O)(=O)c2ccc(C)cc2)[C@H]1c1ccc(C(C)C)cc1	-0.493
C=C(COC)C(=O)CC[C@H](OC(C)=O)c1cccc(OCCO)c1	-0.116
O=C(NCc1ccccc1)[C@]1(CCS(=O)(=O)c2ccccc2)N=C(c2ccc(OCCCO)cc2)O[C@@H]1c1ccccc1	-0.708
Cc1ccc([C@H]2C(C(=O)O)=C[C@@H](C)N2S(=O)(=O)c2ccc(C)cc2)cc1	-0.173
CCCC[C@H]1OB(O)C[C@H]2C1=C(C)C[C@H]1C(=O)N(Cc3ccccc3)C(=O)[C@H]12	-0.152
Cc1cc(C)cc(N2C(=O)CS(=O)(=O)C2c2cccc([N+](=O)[O-])c2)c1 (configuration not stated)	1.41
O=C1OCCC=C[C@H]2OC34C=CCN(c5ccc6ccccc6c5)C(=O)[C@H]3N(CCCCCO)C(=O)[C@@H]4C12 (some centres not stated)	1.84
COC(=O)[C@@]1(Cc2ccccc2)[C@H]2c3cc(C(=O)N4CCCC4)n(Cc4ccc(C)o4)c3C[C@H]2CN1C(=O)c1ccccc1	0.252
CCCCCN1CC=CC23O[C@@H]4/C=C\CCC(C)OC(=O)C4[C@H]2C(=O)N(CCCCCO)[C@@H]3C1=O (some centres not stated)	0.167
C=C[C@H](COC(C)=O)N(Cc1ccc(OC(C)=O)c(OC)c1)S(=O)(=O)c1ccc(Br)cc1	0.285
C=CCOC(=O)[C@@H]1[C@H]2C(=O)O[C@H](c3ccccc3)[C@H](c3ccccc3)N2[C@H](c2ccc(OCCOC(=O)[C@@H]3C[C@@H]4C(=O)N[C@@H](Cc5ccccc5)C(=O)N4[C@@H]3c3cccc(OCCO)c3)cc2)[C@@]12C(=O)Nc1ccc(I)cc12	-0.0074
COc1ccc(C#Cc2ccc3c(c2)[C@]2(C(=O)N3)[C@H](c3ccc(O)cc3)N3[C@H](c4ccccc4)[C@H](c4ccccc4)OC(=O)[C@H]3[C@@H]2C(=O)NC[C@H](O)c2ccccc2)cc1	-0.513
CC(C)(C)OC(=O)CC[C@@]1(C(=O)O)N=C(c2ccc(OCCCO)cc2)O[C@@H]1c1ccccc1N=[N+]=[N-]	0.218
O=C1N(CCS(=O)(=O)c2ccccc2)c2ccccc2C[C@@]12COC(c1ccc(OCCCO)cc1)=N2	-1.48
CC(C)C(=C=CC[C@@H](O)c1ccccc1OCCO)C[C@@H](O)c1ccccn1	-0.0925
COC(=O)[C@@]1(Cc2ccc(OC)cc2)[C@H]2c3cc(C(=O)N4CCCC4)n(Cc4ccccn4)c3C[C@H]2CN1C(=O)c1ccccc1	-0.379
COCCOC(=O)N1C(=O)[C@@]2(c3cc(C#CC4(O)CCCCCC4)ccc31)[C@H](C(=O)N1CCCCCCC1)[C@H]1C(=O)O[C@H](c3ccccc3)[C@H](c3ccccc3)N1[C@@H]2c1ccccc1OCCO	0.504
[N-]=[N+]=NCc1ccccc1C[C@]1(C(=O)NCCN2CCOCC2)N=C(c2ccc(OCCCO)cc2)O[C@H]1c1ccccc1N=[N+]=[N-]	-1.61
CN(C)CCCCCCNC(=O)[C@H]1C[C@H]2C(=O)N[C@@H](CCCCN)C(=O)N2[C@H]1c1ccc(O)cc1	0.266
N#Cc1ccc(NN2C(C(O)C3CCCCC3)C=CC3C(=O)N(c4ccccc4)C(=O)C32)cc1 (configuration not stated)	0.595
COC(=O)C[C@H]1O[C@]2(C(=O)N(Cc3ccccc3)c3ccc(NC(C)=O)cc32)[C@@H](C)[C@@H]1[Si](C)(C)c1ccc(OC)cc1	0.425
[N-]=[N+]=NCc1ccccc1[C@@H]1OC(c2ccc(OCCCO)cc2)=N[C@]1(Cc1ccccc1N=[N+]=[N-])C(=O)NCc1ccccc1	-0.829
COCCOC(=O)N1C(=O)[C@@]2(c3cc(C#CCC(C(=O)OC)C(=O)OC)ccc31)[C@H](c1ccccc1OCCO)N1[C@H](c3ccccc3)[C@H](c3ccccc3)OC(=O)[C@H]1[C@@H]2C(=O)N1CCc2cc(OC)c(OC)cc2C1	-0.821
COCCOC(=O)N1C(=O)[C@@]2(c3cc(C#CCC(C(=O)OC)C(=O)OC)ccc31)[C@H](C(=O)N1CCCCCCC1)[C@H]1C(=O)O[C@H](c3ccccc3)[C@H](c3ccccc3)N1[C@@H]2c1ccc(OCCO)cc1	1.19
CCOC(=O)C[C@H]1[C@H](OC(=O)c2ccc(-c3ccccc3)cc2)[C@@H](NC(=O)Cc2ccc(OC)cc2)c2cc(OCCCO)ccc2N1C(=O)c1ccc2ccccc2n1	0.143
